Test system: IGROV1 ovarian
Test method notes: NCI tumour cell line growth inhibition, 48 h
Entries and their TGI
Property: TGI (µM)

| Molecule | Value modifier | Measured value |
| --- | --- | --- |
| CC(C)(C)OC(=O)c1ccc(NCC2=C(Br)C(=O)C=CC2=O)cc1 | > | 66.9 |
| Cc1ncc(COP(=O)(O)O)c(/C=C2\SC(=S)NC2=O)c1O | > | 100 |
| CC(C)=CCC[C@@H](C)C1=C(O)C(Nc2ccccc2I)=C(C)C(=O)C1=O | = | 17.9 |
| CN(C)CC1CCC(CN(C)C)C(=O)C1=O (configuration not stated) | = | 33.2 |
| COc1ccc(-c2cncn2-c2cc(OC)c(OC)c(OC)c2)cc1 | = | 1.53 |
| Oc1ccc(-c2nc3ccccc3s2)cc1 | > | 100 |
| COC1CC(O)C(OC(=O)c2ccccc2)C(C)O1 (configuration not stated) | > | 100 |
| CC1(C)O[C@@H](C[C@]2(C#N)C[C@H](CCl)OC(C)(C)O2)C[C@@H](C#N)O1 | > | 100 |
| Cc1nc(Nc2ccccc2Cl)sc1C(=O)CC(=O)C(N)=O | > | 100 |
| COc1ccccc1S(=O)(=O)Nc1ccc2c3c(cc(CCC(=O)NCCCCNc4cccc5c4C(=O)N(C4CCC(=O)NC4=O)C5=O)cc13)C(=O)N2C (configuration not stated) | > | 100 |
| CN(C)CCCn1c(=O)c2ccccc2c2cnc3[nH]ccc3c21 | = | 11.7 |
| COC1=CC(C2c3cc4c(cc3[C@@H](Nc3ccc(F)cc3)C3COC(=O)[C@H]23)OCO4)=CC(=O)C1=O (some centres not stated) | = | 44 |
| COc1ccc(C(=O)/C=C/c2cc(-c3cc(OC)c(OC)c(OC)c3)n[nH]2)cc1 | = | 4.81 |
| Cc1cccc(C(=O)O)c1C(=O)c1cccc2ccccc12 | > | 100 |
| CC(=O)OCC1OC(n2c(C)c(C)c(C)c(C#N)c2=S)C(OC(C)=O)C(OC(C)=O)C1OC(C)=O (configuration not stated) | > | 100 |
| Cc1ccc(S(=O)(=O)NC(=O)C2=C3SCCN3C(=O)N(S(=O)(=O)c3ccc(C)cc3)C2c2ccccc2)cc1 (configuration not stated) | > | 100 |
| Cc1ccccc1NC(=O)CC(=O)NNC(Sc1ccccc1)c1cc(N=Nc2ccc(Br)cc2)ccc1O (configuration not stated) | > | 10 |
| Cc1cc(S(=O)(=O)/N=C(/NN)Nc2ccc(Cl)cc2)c(S)cc1Cl | = | 39.7 |
| COc1ccc(/C=C/c2c(C(=O)/C=C/c3ccc(C(F)(F)F)cc3)c(C)nc3ccccc23)cc1 | = | 2.39 |
| NC(N)=NC1C(O)C(O)C(O)C(N=C(N)N)C1O (configuration not stated) | > | 100 |
| O=[Se](O)O | = | 2.43 |
| O=c1c2ccccc2nc2ccc3c(Cl)[nH][nH]c3c12 | > | 100 |

====

System: HS 578T breast
Test method notes: NCI tumour cell line growth inhibition, 48 h

| Compound | Tested on | GI50 |
| --- | --- | --- |
| CCCCCCCCCCCCC(O)c1ccco1 (stereo not drawn) | HS 578T breast | 16200 nM |
| C#Cc1cccc(Nc2nc(Cl)nc3cc(NC(=O)CCl)ccc23)c1 | HS 578T breast | 1430 nM |
| CS(=O)(=O)c1ccc(Nc2nc(N[C@H]3CCCC[C@H]3N)nc3cc[nH]c(=O)c23)cc1 | HS 578T breast | 1250 nM |

====

Tested on: HCT-116 colon
Test method notes: NCI tumour cell line growth inhibition, 48 h

| Compound | Value modifier | TGI [µM] |
| --- | --- | --- |
| C[C@H](C1CC2(C)OC2(C)C(=O)O1)[C@H]1CC[C@H]2[C@@H]3[C@@H]4O[C@@H]4[C@@]4(O)CC=CC(=O)[C@]4(C)[C@H]3CC[C@]12C (some centres undefined) | > | 50 |
| O=C1CSC(c2ccccc2Cl)N1c1nnc(Cn2cnnc2)o1 (centres undefined) | = | 18.4 |
| CN=C1C=CC(=C(c2ccc(N(C)C)cc2)c2ccc(N(C)C)cc2)C=C1 | = | 1.09 |
| CC1(C)C=C(/C=N/Nc2ccccc2)C(C#N)=C(O)C1(C#N)C#N | > | 100 |

====

Entries and their TGI
Test system: SK-OV-3 ovarian
Test method notes: NCI tumour cell line growth inhibition, 48 h
Property: TGI

| Molecule | Property | Measured value |
| --- | --- | --- |
| CC(=O)OCC1OC(n2c(C)c(C)c(C)c(C#N)c2=S)C(OC(C)=O)C(OC(C)=O)C1OC(C)=O (stereo not given) | TGI | 80.9 µM |
| O=C1CSC(c2ccccc2Cl)N1c1nnc(Cn2cnnc2)o1 (stereo not given) | TGI | 75.7 µM |
| O=C(OCc1ccccc1)N1CCNCCNCCN(C(=O)OCc2ccccc2)CCNCC1 | TGI | > 100 µM |
| CC1(C)Oc2ccc3c(=O)cc(-c4ccccc4)oc3c2C1C(=O)O (stereo not given) | TGI | > 100 µM |
| CC(C)c1cc(C(C)C)c(S(=O)(=O)N=[N+]=[N-])c(C(C)C)c1 | TGI | > 100 µM |

====

Entries and their TGI
System: SF-268 CNS
Test method notes: NCI tumour cell line growth inhibition, 48 h

| Compound | Value modifier | TGI [µM] |
| --- | --- | --- |
| Cc1cc(-c2nc3cccc(O)c3s2)ccc1N | > | 100 |
| O=c1[nH]c(=O)n(C2OC(CO)C(O)C2O)cc1OCCCc1ccccc1 (stereo unspecified) | > | 100 |
| COc1ccc(C2=Nc3ccccc3SC(C)C2)cc1OC (stereo unspecified) | = | 43.5 |
| O=[Se](O)O | = | 4.94 |
| COC(=O)Nc1nc2ccccc2[nH]1 | > | 100 |
| [N-]=[N+]=NCC(O)Cn1cnc2c(NC(=O)c3ccccc3)ncnc21 (stereo unspecified) | > | 100 |
| CCCCCCCCC#CCCCCCCCCCC[C@@H]1C(=O)O[C@H](C)[C@@H]1O (tested in a mixture with another compound) | = | 30.4 |
| C=C1CC(C)(c2cccc(Nc3nc4ccccc4c4occc34)c2)OC1=O (stereo unspecified) | = | 29.1 |
| CCCCCCCC1(c2ccc(N)cc2)CCC(=O)NC1=O (stereo unspecified) | > | 100 |
| O=C1/C(=C/c2ccc(F)cc2)CN(C(=O)CCN2CCC(=NO)CC2)C/C1=C\c1ccc(F)cc1 | = | 5.46 |
| CC(CNC(N)=O)NC(N)=O (stereo unspecified) | > | 100 |

====

Test system: RPMI-8226 leukemia
Test method notes: NCI tumour cell line growth inhibition, 48 h
Entries and their GI50

| Molecule | GI50 |
| --- | --- |
| CN=C1C=CC(=C(c2ccc(N(C)C)cc2)c2ccc(N(C)C)cc2)C=C1 | 0.0543 µM |
| CSc1nc2nc3c(nc2c(=O)n1C)C(=O)c1ccccc1C3=O | 0.255 µM |
| CCN(CC)CCCC(C)Nc1cc(-c2cccc(OC(F)(F)F)c2)nc2ccc(N3CCCC3)cc12 (configuration not stated) | 0.0788 µM |
| O=C(NCCCc1cn[nH]c1)c1ccc(-c2ccncc2)c(C#Cc2ccc(F)cc2)c1 | < 0.0113 µM |
| CNCCCNc1nc2ccccc2c2c(=O)c3cc(OC)ccc3sc12 | 2.22 µM |
| O=C(/C=C/C=C/c1ccccc1)c1ccco1 | 1.81 µM |
| O=C(CN(/C=C/C(=O)C(F)(F)F)c1ccc(Cl)cc1)c1ccc(Cl)c(Cl)c1 | 3.74 µM |
| O=C(NNc1ccc(Cl)cc1)C1CCC(CNS(=O)(=O)c2ccccc2Cl)CC1 (configuration not stated) | 4.91 µM |
| Cc1ccc(-c2nc(/C=N/Nc3cc(C)nc4ccc(Cl)cc34)c(C)o2)cc1 | 1.69 µM |
| COc1cccc2cc(N(C)c3nc(C)nc4c3CCC4)ccc12 | < 0.01 µM |
| COc1ccc(-c2ccc(/C=N/n3c(COc4ccccc4Cl)nn(CN4CCOCC4)c3=S)o2)c([N+](=O)[O-])c1 | 15.2 µM |
| c1ccc(OCCC[P+](c2ccccc2)(c2ccccc2)c2ccccc2)cc1 | 0.303 µM |

====

Test system: LOX IMVI melanoma
Test method notes: NCI tumour cell line growth inhibition, 48 h
Property: log10 of TGI (log10 of the value in µM)

| Molecule | Measured value |
| --- | --- |
| COc1ccc(C)cc(=O)c1O | 1.90 |
| CCC(=O)OC1CCn2c1nc1c2C(=O)C(C)=C(NC(C)=O)C1=N (configuration not stated) | 0.48 |
| O=C1/C(=C/c2ccc(F)cc2)CN(C(=O)CCN2CCC(=NO)CC2)C/C1=C\c1ccc(F)cc1 | -0.04 |
| O=C(/C=C/C=C/c1ccccc1)c1ccco1 | 1.45 |
| O=C(OCc1ccccc1)N1CCNCCNCCN(C(=O)OCc2ccccc2)CCNCC1 | 1.49 |
| CC(C)N(Cc1ccc(CN(C(=O)CCl)C(C)C)cc1)C(=O)CCl | 0.02 |
| CN(C)CC1CCC(CN(C)C)C(=O)C1=O (configuration not stated) | 1.35 |
| Cc1cc(S(=O)(=O)/N=C(/NN)Nc2ccc(Cl)cc2)c(S)cc1Cl | 1.48 |
| O=C(c1ccc(Cl)cc1)N1CCN=C1c1cc2ccccc2c2ccccc12 | 1.56 |
